- target_system: RAC-gamma serine/threonine-protein kinase (Homo sapiens) (UniProt Q9Y243)
- Sequence (Q9Y243 whole entry): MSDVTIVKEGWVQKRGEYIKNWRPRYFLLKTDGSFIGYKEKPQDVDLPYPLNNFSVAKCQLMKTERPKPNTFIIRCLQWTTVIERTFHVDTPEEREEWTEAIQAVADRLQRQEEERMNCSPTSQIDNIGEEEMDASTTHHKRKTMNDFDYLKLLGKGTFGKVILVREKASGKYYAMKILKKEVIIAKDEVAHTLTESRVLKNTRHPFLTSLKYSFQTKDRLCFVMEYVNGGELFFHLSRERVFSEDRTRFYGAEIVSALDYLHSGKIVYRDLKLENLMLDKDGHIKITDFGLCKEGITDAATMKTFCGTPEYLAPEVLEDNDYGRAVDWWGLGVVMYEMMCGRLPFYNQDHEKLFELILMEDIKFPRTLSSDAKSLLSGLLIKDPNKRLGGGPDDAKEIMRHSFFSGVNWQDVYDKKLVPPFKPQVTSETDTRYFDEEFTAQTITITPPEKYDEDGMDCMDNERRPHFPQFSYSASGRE
- measurement_parameters: at 1 µM
- Description: GSK_PKIS: AKT3 mean inhibition at 1 uM [Nanosyn]
reported_property: inhibition (%)

c1ccc(COc2ccc(Nc3ncnc4ccc(-c5ccco5)cc34)cc2)cc1 2.23
CN(C)CCOc1ccc(-c2nc(-c3ccncc3)c(-c3ccc4c(c3)CC/C4=N\O)[nH]2)cc1 0.51
COc1ccc(-c2oc3ncnc(N)c3c2-c2ccc(NC(=O)Nc3cc(C(F)(F)F)ccc3F)cc2)cc1 2.55
CCCN(CCS(C)(=O)=O)Cc1ccc(-c2ccc3ncnc(Nc4ccc(OCc5cccc(F)c5)c(Cl)c4)c3c2)o1 0.93
Cc1cccc(Nc2ncc(-c3ccccc3)o2)c1 5.22
Clc1ccc(-c2nn3ncccc3c2-c2ccnc(Nc3ccccc3)n2)cc1 -0.89
N#Cc1c(NC(=O)CN2CCOCC2)sc2c1CCCC2 2.91
Cc1cccc2c1NC(=O)/C2=N\Nc1ccc(S(N)(=O)=O)cc1 1.15
Fc1cccc(COc2ccc(Nc3ncnc4sc(-c5ccco5)cc34)cc2Cl)c1 50.3
Fc1ccc(-c2cc(-c3c[nH]nc3-c3ccccn3)ccn2)cc1 1.5
COC(=O)Nc1nc2ccc(Oc3ccc(NC(=O)Nc4cccc(Cl)c4)cc3)cc2[nH]1 1.86
O=C(Nc1n[nH]c2cc(-c3ccc(F)cc3)ccc12)C1CC1 1.05
CCn1cc(-c2ccnc3[nH]ccc23)c(-c2cccc(NC(=O)Nc3ccc(OCc4ccccc4)cc3)c2)n1 2.59
COc1ccc2c(-c3ccnc(Nc4cccc(OC(F)(F)F)c4)n3)cnn2n1 1.57
Nc1nc(-c2cccc(Cl)c2)c(-c2ccc3ncccc3n2)s1 0.68
CC(C)(CO)CNC(=O)c1ccc2c(c1)/C(=N/Nc1ccc(S(N)(=O)=O)cc1)C(=O)N2 2.3
CCn1c(-c2nonc2N)nc2ccccc21 3.67
CNC(=O)c1cccc(C#Cc2cncnc2Nc2ccc(OCc3cccc(F)c3)c(Cl)c2)c1 -1.1
Cc1ccc(O)cc1Nc1ccnc2cc(-c3ccccn3)ccc12 2.32
CCc1nn2ncccc2c1-c1ccnc(NC2CC2)n1 0.1
CNC(=O)c1cncc(/C=C/c2ccccc2Cl)c1 0.32
